Experiment: activity coefficient (dimensionless); of the first substance listed, at infinite dilution; xn = mol fraction of the nth substance listed
Settings: 328.15 K; 101 kPa; Liquid; Chromatography; x1 = 0
Attribute: activity coefficient

See these solved cases before continuing.
molecule	property.label	endpoint.result
c1ccccc1 [benzene] + CCCCC[N+]1(C)CCCCC1.O=S(=O)([N-]S(=O)(=O)C(F)(F)F)C(F)(F)F	activity coefficient	0.712
Cc1cccc(C)c1 [1,3-dimethylbenzene] + CCCCC[N+]1(C)CCCCC1.O=S(=O)([N-]S(=O)(=O)C(F)(F)F)C(F)(F)F	activity coefficient	1.28
CCC(C)(C)OC [2-methoxy-2-methylbutane] + CCCCC[N+]1(C)CCCCC1.O=S(=O)([N-]S(=O)(=O)C(F)(F)F)C(F)(F)F	activity coefficient	2.5

The record that follows has no activity coefficient shown yet.
Answer with the recorded activity coefficient of C#CCCCCCC [1-octyne] + CCCCCC[N+]1(C)CCCCC1.O=S(=O)([N-]S(=O)(=O)C(F)(F)F)C(F)(F)F only.
3.19

* * *

Assay: activity coefficient (dimensionless); of the first substance listed, at infinite dilution; xn = mol fraction of the nth substance listed
Conditions: 318.15 K; 101 kPa; Liquid; Chromatography; x1 = 0
Could you mark each record Met if its activity coefficient falls strictly under 6, and Not met if it equals or exceeds it?

compound	class.label
C1CCCC1 [cyclopentane] + CCCCC[N+]1(C)CCCCC1.O=S(=O)([N-]S(=O)(=O)C(F)(F)F)C(F)(F)F	Met
CC(C)=O [acetone] + CCCCCC[N+]1(C)CCCCC1.O=S(=O)([N-]S(=O)(=O)C(F)(F)F)C(F)(F)F	Met
CCCCCCCCC [nonane] + CCCCC[N+]1(C)CCCCC1.O=S(=O)([N-]S(=O)(=O)C(F)(F)F)C(F)(F)F	Not met

Does the reported activity coefficient of C#CCCCCC [1-heptyne] + CCCCCC[N+]1(C)CCCCC1.O=S(=O)([N-]S(=O)(=O)C(F)(F)F)C(F)(F)F stay below 6?
Met

Does the reported activity coefficient of C=CCCCCC [1-heptene] + CCCCC[N+]1(C)CCCCC1.O=S(=O)([N-]S(=O)(=O)C(F)(F)F)C(F)(F)F stay below 6?
Not met

Does the reported activity coefficient of C=CCCCCC [1-heptene] + CCCCCC[N+]1(C)CCCCC1.O=S(=O)([N-]S(=O)(=O)C(F)(F)F)C(F)(F)F stay below 6?
Met

* * *

Attribute: activity coefficient
Test: activity coefficient (dimensionless); of the first substance listed, at infinite dilution; xn = mol fraction of the nth substance listed
Settings: 308.15 K; 101 kPa; Liquid; Chromatography; x1 = 0
Lab note: jot the number down without any unit.

See these solved cases before continuing.
molecule	activity coefficient
CCCCCCC [heptane] + CCCCCC[N+]1(C)CCCCC1.O=S(=O)([N-]S(=O)(=O)C(F)(F)F)C(F)(F)F	10.2
C=CCCCCCCCC [1-decene] + CCCCC[N+]1(C)CCCCC1.O=S(=O)([N-]S(=O)(=O)C(F)(F)F)C(F)(F)F	17.1
c1ccsc1 [thiophene] + CCCCC[N+]1(C)CCCCC1.O=S(=O)([N-]S(=O)(=O)C(F)(F)F)C(F)(F)F	0.646

Answer with the recorded activity coefficient of CCCOCCC [dipropyl ether] + CCCCC[N+]1(C)CCCCC1.O=S(=O)([N-]S(=O)(=O)C(F)(F)F)C(F)(F)F only.
4.17

Answer with the recorded activity coefficient of C1CCCCCCC1 [cyclooctane] + CCCCC[N+]1(C)CCCCC1.O=S(=O)([N-]S(=O)(=O)C(F)(F)F)C(F)(F)F only.
10.1

Answer with the recorded activity coefficient of C1CCCCCC1 [cycloheptane] + CCCCCC[N+]1(C)CCCCC1.O=S(=O)([N-]S(=O)(=O)C(F)(F)F)C(F)(F)F only.
6.23

Answer with the recorded activity coefficient of Cc1ccccc1 [toluene] + CCCCC[N+]1(C)CCCCC1.O=S(=O)([N-]S(=O)(=O)C(F)(F)F)C(F)(F)F only.
0.91

Answer with the recorded activity coefficient of c1ccccc1 [benzene] + CCCCC[N+]1(C)CCCCC1.O=S(=O)([N-]S(=O)(=O)C(F)(F)F)C(F)(F)F only.
0.696

Answer with the recorded activity coefficient of CCc1ccccc1 [ethylbenzene] + CCCCC[N+]1(C)CCCCC1.O=S(=O)([N-]S(=O)(=O)C(F)(F)F)C(F)(F)F only.
1.26
